Biological target: recombinant human GST-Syk (Homo sapiens)
Construct: purchased Carna Biosciences 08-176
Assay: Homogeneous Time-Resolved Fluorescence (HTRF) assay for the recombinant human Syk enzyme
Type: biochemical
Settings: recombinant human GST-Syk 5 pM, ATP 25 μM, 10-dose titration 10 μM to 0.508 nM; read-out: rhSYK Activity IC50
assay-metric: IC50 (nM)

Solved entries:
compound="Cc1cc(Nc2nccc(C(F)(F)F)n2)cc(-c2cn(CC(O)C(F)(F)F)nn2)c1 (racemic)" assay_metric=IC50 measure_unit=nM assay_result=29.4
compound=COC(=O)CNC(=O)[C@@H](C)n1cc(-c2cc(C)cc(Nc3cc(C(F)(F)F)ccn3)n2)nn1 assay_metric=IC50 measure_unit=nM assay_result=92.8
compound="Cc1cc(Nc2nccc(C(F)(F)F)n2)cc(-n2cc(C3(O)CCNC(=O)CC3)nn2)c1 (centres unmarked)" assay_metric=IC50 measure_unit=nM assay_result=161
compound="Cc1cc(Nc2cc(F)ccn2)nc(-c2cn(C(C)c3ccc(C(=O)O)cc3)nn2)c1 (centres unmarked)" assay_metric=IC50 measure_unit=nM assay_result=8.88
compound="Cc1cc(Nc2nccc(C)n2)cc(-c2cn(C3CCCCC3O)nn2)c1 (single isomer, unassigned) [Example 7.21]" assay_metric=IC50 measure_unit=nM assay_result=69.5
compound=Cc1cc(Nc2nccc(C(F)(F)F)n2)cc(-c2cn(CCCO)nn2)c1 assay_metric=IC50 measure_unit=nM assay_result=50.7
compound=Cc1cc(Nc2nccc(C(F)(F)F)n2)cc(-n2cc(C3(O)CCC4(CC3)OCCO4)nn2)c1 assay_metric=IC50 measure_unit=nM assay_result=94.7
compound="Cc1cc(Nc2nccc(C)n2)cc(-c2cn(CC(C)(O)C(C)(C)O)nn2)c1 (centres unmarked) [Example 21.35]" assay_metric=IC50 measure_unit=nM assay_result=83.9

(a) COC(=O)C(c1ccc(F)cc1)n1cc(-c2cc(C)cc(Nc3cc(C(F)(F)F)ccn3)n2)nn1 (racemic)
(b) CC(C)=CCn1cc(-c2cc(C)cc(Nc3cc(C(F)(F)F)ccn3)n2)nn1
(c) COC(=O)C1CCC(O)(Cn2cc(-c3cc(C)cc(Nc4cc(C(F)(F)F)ccn4)n3)nn2)CC1(C)C (centres unmarked)
(d) Cc1cc(Nc2cc(C(F)(F)F)ccn2)nc(-c2cn(C3CN(C(=O)C(C)O)CC3O)nn2)c1 (single isomer, unassigned) [Example 13.4]
Hey, quick one: sort these by IC50, largest value first please. Form field (ranking): labels in requested order.
c, a, b, d

(A) COc1ccnc(Nc2cc(C)cc(-c3cn(CC(C)(O)C(C)(C)O)nn3)c2)n1 (centres unmarked) [Example 21.23]
(B) Cc1cc(Nc2nccc(C(F)(F)F)n2)cc(-c2cn(CCCN3CCNC3=O)nn2)c1
Which value of IC50 is numerically greater: that of A or that of B ? Identify your pick by its label.
B

---

Target: recombinant human GST-Syk (Homo sapiens)
Construct: purchased Carna Biosciences 08-176
Test: Homogeneous Time-Resolved Fluorescence (HTRF) assay for the recombinant human Syk enzyme
Format: biochemical
Details: recombinant human GST-Syk 5 pM, ATP 25 μM, 10-dose titration 10 μM to 0.508 nM; read-out: rhSYK Activity IC50
pIC50: −log10 of the molar value.
assay-metric: pIC50

molecule="Cc1cc(Nc2cc(C(F)F)ccn2)nc(-c2cn(C(C)C3CNC(=O)O3)nn2)c1 (single isomer, unassigned) [Example 7.10]" assay_metric=pIC50 assay_result=8.77
molecule="Cc1cc(Nc2cc(C(F)(F)F)ccn2)nc(-c2cn(C3CCNC(=O)CC3)nn2)c1 (racemic) [Example 11.2]" assay_metric=pIC50 assay_result=7.62
molecule=COC(=O)[C@@H]1CCCN1C(=O)[C@@H](C)n1cc(-c2cc(C)cc(Nc3cc(C(F)(F)F)ccn3)n2)nn1 assay_metric=pIC50 assay_result=6.35
molecule=Cc1cc(Nc2cc(C(F)(F)F)ccn2)nc(-c2cn([C@H](C)C(=O)N3CCC[C@H]3C(=O)O)nn2)c1 assay_metric=pIC50 assay_result=6.98
molecule="Cc1cc(Nc2cc(C(F)(F)F)ccn2)nc(-c2cn(C(C(=O)O)c3ccc(F)cc3)nn2)c1 (centres unmarked)" assay_metric=pIC50 assay_result=8.41

(a) Cc1ccnc(Nc2cc(C)cc(-c3cn(C[C@@H](C)CO)nn3)n2)c1
(b) Cc1cc(Nc2nccc(C(F)(F)F)n2)cc(-n2cc([C@]3(O)CC[C@@H](C(=O)O)CC3)nn2)c1
(c) Cc1cc(Nc2cc(C(F)(F)F)ccn2)nc(-c2cn(C(C)C(=O)NCC(c3ccc(C(F)(F)F)cc3)N3CCOCC3)nn2)c1 (centres unmarked)
Arrange these 3 molecules in increasing order of pIC50. Form field (ranking): labels in requested order.
c, a, b
(c: 6.36, a: 6.62, b: 7.90)

(I) Cc1cc(Nc2cc(C(F)(F)F)ccn2)nc(-c2cn(-c3ccc(C(=O)O)cc3)nn2)c1
(II) Cc1cc(Nc2cc(C(F)(F)F)ccn2)nc(-c2cn(C(C)C(=O)N3CCc4c([nH]c5ccccc45)C3)nn2)c1 (centres unmarked)
(III) Cc1cc(Nc2nccc(C(F)(F)F)n2)cc(-n2cc([C@]3(O)CC[C@@H](C(=O)OC(C)(C)C)CC3)nn2)c1
Hey, quick one: sort these by pIC50, largest value first please. Form field (ranking): labels in requested order.
I, II, III

(I) Cc1cc(Nc2nccc(C(F)F)n2)cc(-c2cn(CC(C)(O)CO)nn2)c1 (single isomer, unassigned) [Example 21.8]
(II) Cc1cc(Nc2cc(C(F)(F)F)ccn2)nc(-c2cn(C/C=C/C(=O)O)nn2)c1
Given the two records I and II , choose the one whose pIC50 value is lower. Identify your pick by its label.
I
